Test: Plasma AT2220 (1-deoxynojirimycin hydrochloride) pharmacokinetics by LC-MS/MS in Pompe patients
Type: in vivo, human
Conditions: human, plasma, oral, 100 mg, 100 mg AT2220 (N = 6), Cohort 2; Geometric mean (CV %); read-out: Plasma AT2220 AUC0-T
Readout Label: AUC(0-t) (ng·h/mL)

INSERT INTO results (molecule, measured) VALUES
  ('OC[C@H]1NC[C@H](O)[C@@H](O)[C@@H]1O', 13000);

###

Experiment: Plasma AT2220 (1-deoxynojirimycin hydrochloride) pharmacokinetics by LC-MS/MS in Pompe patients
Assay type: in vivo, human
Conditions: human, plasma, oral, 250 mg, Cohort 3, 250 mg AT2220, individual subjects; read-out: Plasma AT2220 T½ (converted)
Readout Label: half-life (h)

INSERT INTO results (molecule, readout_label, measured) VALUES
  ('OC[C@H]1NC[C@H](O)[C@@H](O)[C@@H]1O', 'half-life', 4.6);

###

Experiment: Plasma AT2220 (1-deoxynojirimycin hydrochloride) pharmacokinetics by LC-MS/MS in Pompe patients
Assay type: in vivo, human
Conditions: human, plasma, oral, 250 mg, Cohort 3, 250 mg AT2220, Geometric Mean, N=6; read-out: Plasma AT2220 AUC0-T
Protocol: Blood samples for pharmacokinetic analysis will be collected before dosing 1-deoxynojirimycin hydrochloride and at 1 hour after administration of 1-deoxynojirimycin hydrochloride (i.e., immediately before initiation of the alglucosidase alfa infusion) and over the 24-hour period after initiation of the alglucosidase alfa infusion. […] Concentrations of 1-deoxynojirimycin hydrochloride in blood samples will be measured in plasma using a validated LC-MS/MS assay. […]
Readout Label: AUC(0-t) (ng·h/mL)

INSERT INTO assay_data (molecule, unit_annotation, measured) VALUES
  ('OC[C@H]1NC[C@H](O)[C@@H](O)[C@@H]1O', 'ng·h/mL', 21800);

###

Assay: Plasma AT2220 (1-deoxynojirimycin hydrochloride) pharmacokinetics by LC-MS/MS in Pompe patients
Type: in vivo, human
Settings: human, plasma, oral, 50 mg, 50 mg AT2220 (N = 4), Cohort 1; Geometric mean (CV %); read-out: Plasma AT2220 Cmax
Readout Label: Cmax (µg/mL)

INSERT INTO assay_data (compound, readout_label, measured) VALUES
  ('OC[C@H]1NC[C@H](O)[C@@H](O)[C@@H]1O [AT2220]', 'Cmax', 1.03);

###

Experiment: Plasma AT2220 (1-deoxynojirimycin hydrochloride) pharmacokinetics by LC-MS/MS in Pompe patients
Type: in vivo, human
Conditions: human, plasma, oral, 250 mg, 250 mg AT2220 (N = 6), Cohort 3; Geometric mean (CV %); read-out: Plasma AT2220 AUC0-∞
Experimental: Blood samples for pharmacokinetic analysis will be collected before dosing 1-deoxynojirimycin hydrochloride and at 1 hour after administration of 1-deoxynojirimycin hydrochloride (i.e., immediately before initiation of the alglucosidase alfa infusion) and over the 24-hour period after initiation of the alglucosidase alfa infusion. […] Concentrations of 1-deoxynojirimycin hydrochloride in blood samples will be measured in plasma using a validated LC-MS/MS assay. […]
Readout Label: AUC(0-inf)

INSERT INTO assay_data (molecule, readout_label, measured) VALUES
  ('OC[C@H]1NC[C@H](O)[C@@H](O)[C@@H]1O', 'AUC(0-inf)', '22100 ng·h/mL');

###

Experiment: Plasma AT2220 (1-deoxynojirimycin hydrochloride) pharmacokinetics by LC-MS/MS in Pompe patients
Format: in vivo, human
Settings: human, plasma, po, 100 mg, 100 mg single oral dose (N=6); arithmetic mean (SD); read-out: t½, plasma AT2220 (converted)
Readout Label: half-life (h)

INSERT INTO results (molecule, readout_label, unit_annotation, measured) VALUES
  ('OC[C@H]1NC[C@H](O)[C@@H](O)[C@@H]1O', 'half-life', 'h', 3.4);

###

Experiment: Plasma AT2220 (1-deoxynojirimycin hydrochloride) pharmacokinetics by LC-MS/MS in Pompe patients
Format: in vivo, human
Details: human, plasma, oral, 250 mg, Cohort 3, 250 mg AT2220, Median, N=6; read-out: Plasma AT2220 Tmax
Description: Blood samples for pharmacokinetic analysis will be collected before dosing 1-deoxynojirimycin hydrochloride and at 1 hour after administration of 1-deoxynojirimycin hydrochloride (i.e., immediately before initiation of the alglucosidase alfa infusion) and over the 24-hour period after initiation of the alglucosidase alfa infusion. […] Concentrations of 1-deoxynojirimycin hydrochloride in blood samples will be measured in plasma using a validated LC-MS/MS assay. […]
Readout Label: Tmax (h)

INSERT INTO measurements (compound, readout_label, measured) VALUES
  ('OC[C@H]1NC[C@H](O)[C@@H](O)[C@@H]1O [AT2220]', 'Tmax', 2);

###

Experiment: Plasma AT2220 (1-deoxynojirimycin hydrochloride) pharmacokinetics by LC-MS/MS in Pompe patients
Type: in vivo, human
Conditions: human, plasma, oral, 100 mg, 100 mg AT2220 (N = 6), Cohort 2; Median (range); read-out: Plasma AT2220 Tmax
Procedure: Blood samples for pharmacokinetic analysis will be collected before dosing 1-deoxynojirimycin hydrochloride and at 1 hour after administration of 1-deoxynojirimycin hydrochloride (i.e., immediately before initiation of the alglucosidase alfa infusion) and over the 24-hour period after initiation of the alglucosidase alfa infusion. […] Concentrations of 1-deoxynojirimycin hydrochloride in blood samples will be measured in plasma using a validated LC-MS/MS assay. […]
Readout Label: Tmax (h)

INSERT INTO results (molecule, measured) VALUES
  ('OC[C@H]1NC[C@H](O)[C@@H](O)[C@@H]1O', 3);

###

Test: Plasma AT2220 (1-deoxynojirimycin hydrochloride) pharmacokinetics by LC-MS/MS in Pompe patients
Format: in vivo, human
Conditions: human, plasma, oral, 100 mg, 100 mg AT2220 (N = 6), Cohort 2; Arithmetic mean (SD); read-out: Plasma AT2220 t½ (converted)
Readout Label: half-life (h)

INSERT INTO results (molecule, unit_annotation, measured) VALUES
  ('OC[C@H]1NC[C@H](O)[C@@H](O)[C@@H]1O', 'h', 3.4);

###

Assay: Plasma AT2220 (1-deoxynojirimycin hydrochloride) pharmacokinetics by LC-MS/MS in Pompe patients
Assay type: in vivo, human
Settings: human, plasma, oral, 250 mg, Cohort 3, 250 mg AT2220, individual subjects; read-out: Plasma AT2220 Tmax
Readout Label: Tmax (h)

INSERT INTO results (compound, unit_annotation, measured) VALUES
  ('OC[C@H]1NC[C@H](O)[C@@H](O)[C@@H]1O [AT2220]', 'h', 3);

###

Assay: Plasma AT2220 (1-deoxynojirimycin hydrochloride) pharmacokinetics by LC-MS/MS in Pompe patients
Type: in vivo, human
Conditions: human, plasma, oral, 250 mg, Cohort 3, 250 mg AT2220, Median, N=6; read-out: Plasma AT2220 T½ (converted)
Readout Label: half-life (h)

INSERT INTO assay_data (molecule, readout_label, measured) VALUES
  ('OC[C@H]1NC[C@H](O)[C@@H](O)[C@@H]1O', 'half-life', 3.6);

###

Test: Plasma AT2220 (1-deoxynojirimycin hydrochloride) pharmacokinetics by LC-MS/MS in Pompe patients
Type: in vivo, human
Settings: human, plasma, po, 50 mg, 50 mg single oral dose (N=4, Cohort 1); geometric mean (CV %); read-out: Cmax, plasma AT2220
Readout Label: Cmax (ng/mL)

INSERT INTO measurements (molecule, measured) VALUES
  ('OC[C@H]1NC[C@H](O)[C@@H](O)[C@@H]1O [AT2220]', 1040);

###

Test: Plasma AT2220 (1-deoxynojirimycin hydrochloride) pharmacokinetics by LC-MS/MS in Pompe patients
Type: in vivo, human
Conditions: human, plasma, oral, 250 mg, Cohort 3, 250 mg AT2220, Geometric Mean, N=6; read-out: Plasma AT2220 T½ (converted)
Protocol: Blood samples for pharmacokinetic analysis will be collected before dosing 1-deoxynojirimycin hydrochloride and at 1 hour after administration of 1-deoxynojirimycin hydrochloride (i.e., immediately before initiation of the alglucosidase alfa infusion) and over the 24-hour period after initiation of the alglucosidase alfa infusion. […] Concentrations of 1-deoxynojirimycin hydrochloride in blood samples will be measured in plasma using a validated LC-MS/MS assay. […]
Readout Label: half-life (h)

INSERT INTO results (molecule, measured) VALUES
  ('OC[C@H]1NC[C@H](O)[C@@H](O)[C@@H]1O', 3.7);

###

Assay: Plasma AT2220 (1-deoxynojirimycin hydrochloride) pharmacokinetics by LC-MS/MS in Pompe patients
Assay type: in vivo, human
Details: human, plasma, oral, 100 mg, 100 mg AT2220 (N = 6), Cohort 2; Geometric mean (CV %); read-out: Plasma AT2220 AUC0-∞
Readout Label: AUC(0-inf) (ng·h/mL)

INSERT INTO measurements (compound, measured) VALUES
  ('OC[C@H]1NC[C@H](O)[C@@H](O)[C@@H]1O [AT2220]', 13100);

###

Test: Plasma AT2220 (1-deoxynojirimycin hydrochloride) pharmacokinetics by LC-MS/MS in Pompe patients
Assay type: in vivo, human
Conditions: human, plasma, oral, 250 mg, Cohort 3, 250 mg AT2220, individual subjects; read-out: Plasma AT2220 AUC0-T
Readout Label: AUC(0-t) (ng·h/mL)

INSERT INTO assay_data (compound, readout_label, measured) VALUES
  ('OC[C@H]1NC[C@H](O)[C@@H](O)[C@@H]1O [AT2220]', 'AUC(0-t)', 18700);

Data provenance: patent US20150086530A1
